Record 1.0 whenever logP is at 2 or higher; record 0.0 when lower.

Q: Evaluate c1ccc2[nH]ncc2c1 : logP at minimum 2?
Result: 0.0

Continuing:
Q: Evaluate CNC(C)Cc1ccccc1 (stereo unspecified) : logP at minimum 2?
Result: 1.0

Q: Consider next the compound NC(N)=O in the same way.
Result: 0.0

Q: Consider next the compound C#C in the same way.
Result: 0.0

Q: Consider next the compound CC(=O)Nc1ccc(I)cc1 in the same way.
Result: 1.0

Q: Consider next the compound CC(C)(C)COC(N)=O in the same way.
Result: 0.0

---

Examples of molecules with documented logP follow.
Simply state the number, no unit and no words.

Worked cases, logP given:
Q: Can you share its logP? I mean this molecule: COC(=O)C(C#N)=NNc1cccc(Cl)c1
Result: 3.6

Q: Consider next the molecule NS(=O)(=O)c1cccc([N+](=O)[O-])c1 in the same way.
Result: 0.55

Q: Consider next the molecule CC(=O)c1ccccc1O in the same way.
Result: 1.92

Q: Consider next the molecule Nc1nc(N)c2ncn([C@H]3C[C@H](F)[C@@H](CO)O3)c2n1 in the same way.
Result: 0.05

Continuing:
Q: Can you share its logP? I mean this molecule: CCC(=O)c1ccccc1
Result: 2.19

Q: Consider next the molecule Brc1ccc2ncccc2c1 in the same way.
Result: 2.83

Q: Consider next the molecule NS(=O)(=O)c1ccc(Cl)cc1 in the same way.
Result: 1.15

Q: Consider next the molecule Nc1ccc(S(=O)(=O)c2ccc(N)cc2)cc1 in the same way.
Result: 0.97

Q: Consider next the molecule CCCC(CO)n1cnc2c(N)ncnc21 (configuration not stated) in the same way.
Result: 0.66

Q: Consider next the molecule O=c1cn[nH]c(=O)[nH]1 in the same way.
Result: -0.59

Q: Consider next the molecule CNCc1ccccc1 in the same way.
Result: 1.52

Q: Consider next the molecule Cc1ccc2cc(C)ccc2c1 in the same way.
Result: 4.31
